System: PC-3 cells
Assay: Antiproliferative activity, Alamar Blue assay, PC-3 cells
Format: cell-based, human
Conditions: Homo sapiens, PC-3, PC3 cells, Alamar Blue; read-out: PC3 antiproliferative activity pIC50 (converted)
quantityName: IC50 (nM)

Known results for compounds:
>>> readoutnumber("CCc1cc2ccc(C(C)(C#N)Cc3nc(Cl)cc(OCCOC)n3)cc2[nH]c1=O (centres unmarked) [Compound 370]")
2510
>>> readoutnumber("CCc1cc2ccc(C(C)(C#N)Cc3ccc4c(c3)OC(F)(F)O4)cc2[nH]c1=O (centres unmarked) [Compound 346]")
3160

I: CCc1cc2ccc(C(C)(C#N)Cc3cc(F)ccc3F)cc2[nH]c1=O (centres unmarked) [Compound 280]
II: CCc1cc2ccc(C(C)(C#N)Cc3ccc(OC)nc3)cc2[nH]c1=O (centres unmarked) [Compound 352]
Prompt line: Which record shows the lower IC50: the first, I , or the second, II ? // return label of chosen record
Response line: I
(I: 631 nM, II: 2510 nM)

1: CCc1cc2ccc(C(C)(C#N)Cc3cc(N(C)C)nc(C#N)n3)cc2[nH]c1=O (centres unmarked) [Compound 317]
2: CCc1cc2ccc(C(C)(C#N)CCOc3cc(Cl)c(Cl)cc3Cl)cc2[nH]c1=O (centres unmarked) [Compound 277]
3: CCc1cc2ccc(C(C)(C#N)Cc3cc(N(C)C)nc(C)n3)cc2[nH]c1=O (centres unmarked) [Compound 322]
Prompt line: Your job: order these 3 records by IC50, ascending. Return the labels ranked in the requested order, please.
Response line: 2, 3, 1

----------
Molecular target: Human PARP-1 enzyme (Homo sapiens, UniProt P09874)
Construct: purchased Trevigen
Sequence (P09874 whole entry): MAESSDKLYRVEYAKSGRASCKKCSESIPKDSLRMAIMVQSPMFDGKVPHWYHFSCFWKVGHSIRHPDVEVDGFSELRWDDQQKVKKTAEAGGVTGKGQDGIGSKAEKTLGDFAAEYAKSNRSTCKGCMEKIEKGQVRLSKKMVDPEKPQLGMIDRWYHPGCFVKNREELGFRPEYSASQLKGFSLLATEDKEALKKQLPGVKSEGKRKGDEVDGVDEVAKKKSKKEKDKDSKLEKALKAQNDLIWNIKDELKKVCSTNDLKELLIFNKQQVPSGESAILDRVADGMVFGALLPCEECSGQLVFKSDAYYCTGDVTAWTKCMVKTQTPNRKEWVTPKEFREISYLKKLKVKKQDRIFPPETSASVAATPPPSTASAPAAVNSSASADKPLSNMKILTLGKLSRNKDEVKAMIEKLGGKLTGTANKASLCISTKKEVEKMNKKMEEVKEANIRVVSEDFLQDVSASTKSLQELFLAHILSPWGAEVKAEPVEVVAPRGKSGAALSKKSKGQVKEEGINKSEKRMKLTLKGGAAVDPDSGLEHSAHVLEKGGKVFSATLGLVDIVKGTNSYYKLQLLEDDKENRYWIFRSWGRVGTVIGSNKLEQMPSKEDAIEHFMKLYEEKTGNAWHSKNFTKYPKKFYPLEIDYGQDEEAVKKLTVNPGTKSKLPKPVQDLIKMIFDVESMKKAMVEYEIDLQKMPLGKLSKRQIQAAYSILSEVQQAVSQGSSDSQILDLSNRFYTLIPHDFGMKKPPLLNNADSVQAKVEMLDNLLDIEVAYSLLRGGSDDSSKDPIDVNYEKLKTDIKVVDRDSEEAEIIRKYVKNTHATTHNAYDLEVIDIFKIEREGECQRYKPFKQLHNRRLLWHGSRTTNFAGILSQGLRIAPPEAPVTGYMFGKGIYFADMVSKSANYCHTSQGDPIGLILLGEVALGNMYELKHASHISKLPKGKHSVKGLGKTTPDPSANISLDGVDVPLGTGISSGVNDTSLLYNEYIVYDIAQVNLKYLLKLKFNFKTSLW
Test: In vitro Scintillation Proximity Assay (SPA) for PARP-1 inhibitory activity
Type: biochemical
Settings: read-out: in vitro SPA assay PARP-1 pIC50 (converted)
quantityName: IC50 (nM)

Known results for compounds:
>>> readoutnumber("CCc1cc2ccc(C(C)(C#N)Cc3cccc(CNCCOC)c3)cc2[nH]c1=O (centres unmarked) [Compound 60]")
794
>>> readoutnumber("CCc1cc2ccc(C(C)(C#N)Cc3ccccc3C#N)cc2[nH]c1=O (centres unmarked) [Compound 101]")
50.1
>>> readoutnumber("CCc1cc2ccc(C(C)(C#N)Cc3cccc(O)c3)cc2[nH]c1=O (centres unmarked) [Compound 22]")
126

A: CCc1cc2ccc(C(C)(C#N)Cc3cccc(F)c3F)cc2[nH]c1=O (centres unmarked) [Compound 120]
B: CCc1c(C)c2ccc(C(C)(C#N)Cc3cccc(C#N)c3)cc2[nH]c1=O (centres unmarked) [Compound 181]
C: CCc1cc2ccc(C(C)(C#N)Cc3cc(C)cc(Br)c3)cc2[nH]c1=O (centres unmarked) [Compound 284]
D: CCc1cc2ccc(C(C)(C#N)CCOc3ccc(C#N)cc3)cc2[nH]c1=O (centres unmarked) [Compound 161]
Prompt line: Sort by IC50, descending. Return the labels ranked in the requested order, please.
Response line: A, D, B, C
(A: 631 nM, D: 251 nM, B: 100 nM, C: 31.6 nM)

----------
Test system: PC3 cells
Assay: EB1 Comet (microtubule disruption) assay
Type: cell-based, human
Conditions: Homo sapiens, PC-3, 1 h, 1 hour treatment, read-out: EB1 pLAC (converted)
quantityName: minimal effective concentration (µM)
# unit: µM | format: bare number

Known results for molecules:
>>> readoutnumber("CCc1cc2ccc(C(C)(C#N)Cc3cccc(COC)c3)cc2[nH]c1=O (centres unmarked) [Compound 8]")
0.316
>>> readoutnumber("CCc1cc2ccc(C(C)(C#N)Cc3cc(C#N)nc(N(C)C)c3)cc2[nH]c1=O (centres unmarked) [Compound 325]")
3.16
>>> readoutnumber("CCc1cc2cc(F)c(C(C)(C#N)Cc3cccc(C#N)c3)cc2[nH]c1=O (centres unmarked) [Compound 175]")
1

Prompt line: What is its minimal effective concentration for PC3 cells? Entry: Cc1cc2ccc(C(C)(C#N)Cc3cccc(Oc4ccccc4)n3)cc2[nH]c1=O (centres unmarked) [Compound 193]
Response line: 0.1

Prompt line: Same thing, different molecule: CCc1cc2ccc(C(C)(C#N)Cc3ccc4nccnc4c3)cc2[nH]c1=O (centres unmarked) [Compound 87]
Response line: 3.16

Prompt line: Same thing, different molecule: CCc1cc2ccc(C(C)(C#N)Cc3ncc(C)c(OC)c3C)cc2[nH]c1=O (centres unmarked) [Compound 311]
Response line: 3.16

Prompt line: Same thing, different molecule: Cc1cc2ccc(C(C)(C#N)C3CCCc4ccccc43)cc2[nH]c1=O (centres unmarked) [Compound 404]
Response line: 0.562

Prompt line: Same thing, different molecule: Cc1cc2ccc(C(C)(C#N)Cc3ccccc3)cc2[nH]c1=O (centres unmarked) [Compound 76]
Response line: 1

Prompt line: Same thing, different molecule: CCc1cc2ccc(C(C)(C#N)CN(C)Cc3ccccc3)cc2[nH]c1=O (centres unmarked) [Compound 189]
Response line: 1

Prompt line: Same thing, different molecule: Cc1cc2ccc(C(C)(C#N)Cc3nc4ccccc4s3)cc2[nH]c1=O (centres unmarked) [Compound 75]
Response line: 0.316

Prompt line: Same thing, different molecule: CCc1cc2ccc(C(C)(C#N)Cc3cc(C)nc(Cl)c3)cc2[nH]c1=O (centres unmarked) [Compound 326]
Response line: 3.16

Prompt line: Same thing, different molecule: CCc1cc2ccc(C(C)(C#N)Cc3cccc(OC[C@@H](O)CO)c3)cc2[nH]c1=O (some centres unmarked) [Compound 56]
Response line: 3.16

Prompt line: Same thing, different molecule: CCc1cc2ccc(C(C)(C#N)Cc3cccc(C(F)(F)F)c3F)cc2[nH]c1=O (centres unmarked) [Compound 134]
Response line: 1

Prompt line: Same thing, different molecule: CCc1cc2ccc(C(C)(C#N)Cc3cc(N(C)C)nc(C)n3)cc2[nH]c1=O (centres unmarked) [Compound 322]
Response line: 1

Prompt line: Same thing, different molecule: CCc1cc2ccc(C(C)(C#N)Cc3ccccc3C#N)cc2[nH]c1=O (centres unmarked) [Compound 101]
Response line: 1

Prompt line: Same thing, different molecule: CCc1cc2ccc(C(C)(C#N)Cc3cc(N(C)C)nc(OC)n3)cc2[nH]c1=O (centres unmarked) [Compound 354]
Response line: 1

Prompt line: Same thing, different molecule: CCc1cc2ccc(C(C)(C#N)Cc3cccc(C#C[Si](C)(C)C)n3)cc2[nH]c1=O (centres unmarked) [Compound 210]
Response line: 0.316

----------
Biological target: Human PARP-1 enzyme (Homo sapiens)
Construct: purchased Trevigen
Test: In vitro Scintillation Proximity Assay (SPA) for PARP-1 inhibitory activity
Format: biochemical
Details: read-out: in vitro SPA assay PARP-1 pIC50 (converted)
quantityName: IC50 (nM)

Known results for compounds:
>>> readoutnumber("CCc1cc2ccc(C(C)(C#N)C(C)c3ccccc3)cc2[nH]c1=O (stereo not drawn) [Compound 198]")
126
>>> readoutnumber("CCOc1cc(N(C)C)nc(CC(C)(C#N)c2ccc3cc(CC)c(=O)[nH]c3c2)n1 (stereo not drawn) [Compound 312]")
39.8
>>> readoutnumber("CC(C#N)(Cc1ccccc1)c1ccc2cc(CO)c(=O)[nH]c2c1 (stereo not drawn) [Compound 40]")
2510
>>> readoutnumber("CCc1cc2ccc(C(C#N)(CC)Cc3cccc(C#N)n3)cc2[nH]c1=O (stereo not drawn) [Compound 342]")
79.4

A: CCc1cc2ccc(C(C)(C#N)Cc3csc(C)n3)cc2[nH]c1=O (stereo not drawn) [Compound 86]
B: CCc1cc2ccc(C(C)(C#N)Cc3ccc(F)cc3)cc2[nH]c1=O (stereo not drawn) [Compound 115]
C: CCc1cc2ccc(C(C)(C#N)Cc3cccc(C#N)n3)cc2[nH]c1=O (stereo not drawn) [Compound 329]
D: CCc1cc2ccc(C(C)(C#N)Cc3cc(OC)ccc3F)cc2[nH]c1=O (stereo not drawn) [Compound 171]
Prompt line: Your job: order these 4 records by IC50, ascending. Return the labels ranked in the requested order, please.
Response line: D, C, B, A
(D: 20 nM, C: 79.4 nM, B: 316 nM, A: 501 nM)

----------
Biological target: Human PARP-1 enzyme (Homo sapiens, UniProt P09874)
Construct: purchased Trevigen
Assay: In vitro Scintillation Proximity Assay (SPA) for PARP-1 inhibitory activity
Format: biochemical
Details: read-out: in vitro SPA assay PARP-1 pIC50 (converted)
quantityName: IC50 (nM)

>>> readoutnumber("CCc1cc2ccc(C(C)(C#N)Cc3cc(F)ccc3F)cc2[nH]c1=O (centres unmarked)")
50.1
>>> readoutnumber("Cc1cc2ccc(C(C)(C#N)CCCCOc3ccccc3)cc2[nH]c1=O (centres unmarked)")
126
>>> readoutnumber("CCc1cc2ccc([C@@](C)(C#N)Cc3cccc(C#CCO)c3)cc2[nH]c1=O (single isomer, unassigned)")
25.1
>>> readoutnumber("CCc1cc2ccc([C@](C)(C#N)C[C@H]3Cc4ccccc4O3)cc2[nH]c1=O")
126
>>> readoutnumber("CCc1cc2ccc(C(C)(C#N)Cc3ccc(C)nc3)cc2[nH]c1=O (centres unmarked)")
100

1: CCc1cc2ccc(C(C)(C#N)Cc3cccc(NC)c3)cc2[nH]c1=O (centres unmarked)
2: CCc1cc2ccc(C(C)(C#N)Cc3cc(C#N)nc(OC)c3)cc2[nH]c1=O (centres unmarked)
Prompt line: Pick one: 1 or 2 . Which has the bigger IC50 number? // return label of chosen record
Response line: 1
(1: 79.4 nM, 2: 50.1 nM)
